# Tested on: SF-295
# assay_explanation: NCI tumour cell line growth inhibition, 48 h
Active and inactive are the calls of the source. Rule as the data show it: active = GI50 up to about 1.1 µM and inactive = higher. Where a SMILES comes first, the peptide text is derived from it. [ ]: non-standard residue; d: D form. The star is where a group is joined. Octanoyl = CCCCCCCC(=O)*; Aib = CC(C)(N)C(=O)O; tBu = CC(C)(C)*
Response enum: 1 (yes) for active, 0 (no) for inactive

Q: Assay outcome for `COc1ccc(-c2nc3ncccn3c2-c2ccc(SC)cc2)cc1` : what was it?
A: 1 (yes)

Q: # fetch the recorded call for COc1ccc(C(C2=C(C)C(=O)c3ccccc3C2=O)c2ccc(C(C)C)cc(=O)c2O)cc1 (configuration not stated) here
A: 0 (no)

Q: Returns: the outcome recorded for `Cc1cc(=O)cc2sc3c(C)cccc3nc1-2` in this assay.
A: 0 (no)

Q: Record lookup: outcome of this test for `CC(C)=NNc1ncnc2[nH]cnc12` ?
A: 0 (no)

Q: Dear colleague, could you share the recorded outcome for CCCCCCCC(=O)NC(C)(C)C(=O)NC(COC(C)(C)C)C(=O)NC(CC(C)C)C(=O)NC(C)(C)C(=O)NC(COC(C)(C)C)C(=O)NC(COC(C)(C)C)C(=O)NC(CC(C)C)C(=O)NC(C)(C)C(=O)NC(COC(C)(C)C)C(=O)NC(C(=O)NC(CC(C)C)C(=O)OC)C(C)CC (configuration not stated) (Octanoyl-[Aib]S(tBu)L[Aib]S(tBu)S(tBu)L[Aib]S(tBu)IL-OMe; configuration not given here) when you have a moment?
A: 0 (no)

Q: Any idea what this test logged for O=C(NN1C(=O)C(Cl)C1c1c(O)ccc2ccccc12)c1ccccc1O (configuration not stated) ?
A: 0 (no)

Q: What is the recorded call for this compound in the test? `COc1ccc(CN(CCN(C)C)c2ccccn2)cc1.Cn1c(=O)c2[nH]c(Br)nc2n(C)c1=O`
A: 0 (no)
